- assay summary: Volume of distribution at steady state in monkey after iv administration
- Format: ADME, organism-based
- measurement conditions: macaca, in vivo, read-out: Vdss
// FALSE strictly below 0.9 L/kg in Vd; TRUE otherwise

[[record]]
compound = "C[C@@H](O)[C@H]1C(=O)N2C(C(=O)[O-])=C(SC3Cn4cnc[n+]4C3)[C@H](C)[C@H]12 (stereo not given in full)"
label = "FALSE"

[[record]]
compound = "C#C[C@]1(O)CC[C@H]2[C@@H]3CCc4cc(O)ccc4[C@H]3CC[C@@]21C"
label = "TRUE"

[[record]]
compound = "O=[N+]([O-])O[C@@H]1CO[C@H]2[C@@H]1OC[C@@H]2O [ISOSORBIDE MONONITRATE]"
label = "FALSE"

[[record]]
compound = "Cn1c(=O)c2c(ncn2C)n(C)c1=O"
label = "FALSE"

[[record]]
compound = "CC(C)(C)S(=O)(=O)C[C@@H](Cc1ccccc1)C(=O)N[C@@H](Cc1cnc[nH]1)C(=O)N[C@@H](CC1CCCCC1)[C@@H](O)[C@@H](O)C1CC1"
label = "TRUE"

[[record]]
compound = "COCCc1ccc(OCC(O)CNC(C)C)cc1 (stereo not given)"
label = "TRUE"

[[record]]
compound = "NCC1(CC(=O)O)CCCCC1"
label = "FALSE"

[[record]]
compound = "N=C(N)N1CCC[C@@H](CNC(=O)C[C@H](NS(=O)(=O)c2ccc3ccccc3c2)C(=O)N(CC(=O)O)C2CC2)C1 [NAPSAGATRAN ANHYDROUS]"
label = "FALSE"

[[record]]
compound = "CC[C@H]1OC(=O)[C@H](C)[C@@H](O[C@H]2C[C@@](C)(OC)[C@@H](O)[C@H](C)O2)[C@H](C)[C@@H](O[C@@H]2O[C@H](C)C[C@H](N(C)C)[C@H]2O)[C@](C)(O)C[C@@H](C)C(=O)[C@H](C)[C@@H](O)[C@]1(C)O"
label = "TRUE"

[[record]]
compound = "N[C@H](C(=O)O)[C@@H]1CC(Cl)=NO1"
label = "FALSE"

[[record]]
compound = "C[C@@H]1[C@H](O)[C@@H](C)/C=C/C=C/C=C/C=C/C=C/C=C/C=C/[C@H](O[C@@H]2O[C@H](C)[C@@H](O)[C@H](N)[C@@H]2O)C[C@@H]2O[C@](O)(C[C@@H](O)C[C@@H](O)[C@H](O)CC[C@@H](O)C[C@@H](O)CC(=O)O[C@H]1C)C[C@H](O)[C@H]2C(=O)O"
label = "FALSE"

[[record]]
compound = "N=C(N)c1ccc(C(=O)N[C@@H](Cc2ccc(O)cc2)C(=O)N2CCC(OCC(=O)O)CC2)cc1"
label = "FALSE"

[[record]]
compound = "c1ccc(C2(N3CCCCC3)CCCCC2)cc1"
label = "TRUE"

[[record]]
compound = "C[C@@H](O)[C@H]1C(=O)N2C(C(=O)O)=C(S[C@@H]3CN[C@H](C(=O)N(C)C)C3)[C@H](C)[C@H]12"
label = "FALSE"

[[record]]
compound = "CO/N=C(\\C(=O)N[C@@H]1C(=O)N2C(C(=O)O)=CCS[C@H]12)c1csc(N)n1"
label = "FALSE"

[[record]]
compound = "Cc1nc(=O)c(C#N)c(NCc2cccnc2)[nH]1"
label = "FALSE"

[[record]]
compound = "CC(=O)CC(c1ccccc1)c1c(O)c2ccccc2oc1=O (stereo not given)"
label = "FALSE"

[[record]]
compound = "O=P(O)(O)C(Sc1ccc(Cl)cc1)P(=O)(O)O"
label = "TRUE"

[[record]]
compound = "CC1(C)O[C@@H]2C[C@H]3[C@@H]4C[C@H](F)C5=CC(=O)C=C[C@]5(C)[C@H]4[C@@H](O)C[C@]3(C)[C@]2(C(=O)CO)O1 [FLUNISOLIDE]"
label = "TRUE"

[[record]]
compound = "CN1C(C(=O)Nc2nccs2)=C(O)c2ccccc2S1(=O)=O"
label = "FALSE"

[[record]]
compound = "NC(=O)c1csc([C@@H]2O[C@H](CO)[C@@H](O)[C@H]2O)n1"
label = "TRUE"

[[record]]
compound = "CO[C@@]1(NC(=O)CSCC#N)C(=O)N2C(C(=O)O)=C(CSc3nnnn3C)CS[C@@H]21"
label = "FALSE"

[[record]]
compound = "C[C@@H](O)[C@H]1C(=O)N2C(C(=O)O)=C(SCCOC(N)=O)S[C@H]12"
label = "FALSE"

[[record]]
compound = "O=c1ccc2ccccc2o1"
label = "TRUE"

[[record]]
compound = "CC[C@]1(O)C[C@@H]2CN(CCc3c([nH]c4ccccc34)[C@@](C(=O)OC)(c3cc4c(cc3OC)N(C)[C@H]3[C@@](O)(C(=O)OC)[C@H](OC(C)=O)[C@]5(CC)C=CCN6CC[C@]43[C@@H]65)C2)C1"
label = "TRUE"

[[record]]
compound = "Cc1cc(O)c(C(=O)N[C@@H](C(=O)N[C@@H]2C(=O)N3C(C(=O)O)=C(CSc4nnnn4C)CS[C@H]23)c2ccc(O)cc2)cn1 [CEFPIRAMIDE]"
label = "FALSE"

[[record]]
compound = "N[C@@H](Cc1ccc(O)c(O)c1)C(=O)O"
label = "FALSE"

[[record]]
compound = "Cc1cccc(C)c1NC(=O)NCCCNC(C)C"
label = "TRUE"

[[record]]
compound = "COC(=O)C1=C(C)NC(C)=C(C(=O)OCCN(C)Cc2ccccc2)C1c1cccc([N+](=O)[O-])c1 (stereo not given)"
label = "TRUE"

[[record]]
compound = "CN1CCN(c2c(F)cc3c(=O)c(C(=O)O)cn(CCF)c3c2F)CC1"
label = "TRUE"


Reference source: ChEMBL document CHEMBL1614629
